test system: Escherichia coli TOP10; experiment: shrunken log2 fold change of peptide-encoding DNA abundance (4.5 h post-induction vs induction); higher = less antimicrobial activity (less host growth inhibition); conditions: time post-induction: 4.5 h; library: site-saturation at positions 5, 18, 19, 20;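 also: peptides expressed intracellularly from a pBAD plasmid library in pooled LB shake-flask culture, induced with 0.3% L-arabinose, DNA abundance read by NGS, three biological replicates, DESeq2 with apeglm shrinkage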
Catalogue of shrunken log2 fold change values
Number only, no unit.

For orientation, consider the following solved cases.
[[record]]
item_sequence = "RRIRNRPPRLPRPRPRPDLAPRP"
endpoint_result = 0.02

[[record]]
item_sequence = "RRIRARPPRLPRPRPRPANPPRP"
endpoint_result = 0.425

[[record]]
item_sequence = "RRIRQRPPRLPRPRPRPCGMPRP"
endpoint_result = -0.199

[[record]]
item_sequence = "RRIRCRPPRLPRPRPRPYKWPRP"
endpoint_result = -0.636

[[record]]
item_sequence = "RRIRRRPPRLPRPRPRPKIVPRP"
endpoint_result = 0.0944


Looking up `RRIRGRPPRLPRPRPRPSTFPRP` , I see its shrunken log2 fold change listed as 0.112

Looking up `RRIRQRPPRLPRPRPRPIEFPRP` , I see its shrunken log2 fold change listed as -1.79

Looking up `RRIRARPPRLPRPRPRPQQKPRP` , I see its shrunken log2 fold change listed as 0.153

Origin of values: the supplement of paper PMC9112550
